The measurements presented in this section are drawn from ChEMBL document CHEMBL6127052.

test system: Staphylococcus aureus; test: Antibacterial activity against methicillin-resistant Staphylococcus aureus clinical isolate M20 by CLSI based micro-broth dilution method; format: functional
The molecules listed here are annotated with their MIC.
reported_endpoint: MIC (µg/mL)

>>> df
                                   compound  value_qualifier  recorded_measurement
0  C=CCc1cc(-c2ccc(OCCC[N+](C)(C)CC(=O)NCCCC)c(CC=C)c2)c2oc(=S)n(Cc3ccc(Cl)cc3Cl)c2c1.[Br-]                >                   128
1  C=CCc1cc(-c2ccc(OCCC[N+](C)(C)CC(=O)NCCCC)c(CC=C)c2)c2oc(=S)n(Cc3ccc(Cl)c(F)c3)c2c1.[Br-]                =                     8
2  C=CCc1cc(-c2ccc(OCCC[N+](C)(C)CC(=O)NCCCC)c(CC=C)c2)c2oc(=S)n(Cc3ccc(F)cc3)c2c1.[Br-]                =                     2
3  C=CCc1cc(-c2ccc(OCCC[N+](C)(C)CC(=O)NCCCC)c(CC=C)c2)c2oc(=S)n(Cc3cc(F)c(F)c(F)c3)c2c1.[Br-]                =                     2
4  C=CCc1cc(-c2ccc(OCCC[N+](C)(C)CC(=O)NCCCC)c(CC=C)c2)c2oc(=S)n(Cc3cc(Br)ccc3F)c2c1.[Br-]                =                     8
5  C=CCc1cc(-c2ccc(OCCC[N+](C)(C)CC(=O)NCCCC)c(CC=C)c2)c2oc(=S)n(Cc3ccc(Cl)cc3F)c2c1.[Br-]                >                   128
6  C=CCc1cc(-c2ccc(OCCC[N+](C)(C)CC(=O)NCCCC)c(CC=C)c2)c2oc(=S)n(Cc3ccc(C(F)(F)F)cc3)c2c1.[Br-]                =                     4
